system: TGFBR1 mRNA; assay: remaining TGFBR1 mRNA relative to control siRNA (off-target knock-down) (fraction of control); quantification method: branched DNA; higher = less knock-down
Classification field. Basis: remaining TGFBR1 mRNA. Definitions: interval 1: < 0.9; interval 2: ≥ 0.9 and < 1; interval 3: ≥ 1

Which class holds GAGGUUGUUGUUGAGCUCGTT ?
interval 2

Then what about the sequence AUGCACUGAAGAAUUUCUUTT ?
interval 1

----------
system: TGFBR1 mRNA; test: remaining TGFBR1 mRNA relative to control siRNA (off-target knock-down) (fraction of control); quantification method: branched DNA; higher = less knock-down
Metric: remaining TGFBR1 mRNA
Give the figure by itself; no unit, no explanation.

For orientation, consider the following solved cases.
INSERT INTO assay_data (residue_sequence, system, numeric_readout) VALUES
  ('UGGAAGACGCUUUAAAGGCTT', 'TGFBR1 mRNA', 0.85),
  ('AUCUACACACACGCAAGAATT', 'TGFBR1 mRNA', 1.48),
  ('UCUCAUUUACCCUUUGGGGTT', 'TGFBR1 mRNA', 0.67);

Entry under review: AACAUAGCCUCAUACAAGGTT . Reported remaining TGFBR1 mRNA?
0.7

Next entry: CCUCAAUUGACACUUGCCUTT
1

Could you do the same for UGCUUAUCUCAUCUGAAGCTT , please?
0.93

What do you get for UGAUGUUGUCUUGUCUGGUTT ?
0.44

Same for GGGCUGUCAAUGACAGCUUTT
0.82

----------
tested on: TGFBR2 mRNA; assay: remaining TGFBR2 mRNA relative to control siRNA (off-target knock-down) (fraction of control); quantification method: branched DNA; higher = less knock-down
Metric: remaining TGFBR2 mRNA
Lab note: write the figure by itself, no unit.

INSERT INTO measurements (residue_sequence, system, numeric_readout) VALUES
  ('UUCGUCGAUGGCUUCGUCUTT', 'TGFBR2 mRNA', 0.65),
  ('UUGUCAAAGUGGAACGCUCTT', 'TGFBR2 mRNA', 0.29),
  ('AUUGAAGCCACCAUUCUCCTT', 'TGFBR2 mRNA', 0.94),
  ('UCCCGUACUGGUUCUGGGGTT', 'TGFBR2 mRNA', 0.81),
  ('UCAUAAGCAUGCUCCACACTT', 'TGFBR2 mRNA', 0.62);

So what remaining TGFBR2 mRNA did AGCCUCUGGAGAAUCUCCUTT get with TGFBR2 mRNA?
0.6

Thanks! And AUGUAUAGUCACGCAGUUCTT ?
0.24

Note, next up: CUUGGUACAGCACAUGGUUTT
0.82

Param item: AGACUGCAAAUAUUCCUGATT
0.49

Queued: UGGCCGUCAAUGUAUUUCUTT
0.7

Same read-out for AUGGUGUGGCUCGUCGUGCTT ?
0.46

Thanks! And AAUGGGAGACAAGCCAAUUTT ?
0.25

Lookup AAGUGCAUUCCGUGCAAUCTT
0.59

----------
tested on: TGFBR1 mRNA; test: remaining TGFBR1 mRNA relative to control siRNA (off-target knock-down) (fraction of control); quantification method: branched DNA; higher = less knock-down
# strict inequality: remaining TGFBR1 mRNA < 1 yields Y, everything else yields N

INSERT INTO results (residue_sequence, system, label_value) VALUES
  ('UCUGCAACGUAGAGGUUAUTT', 'TGFBR1 mRNA', 'Y'),
  ('UACUUAAAGCCAGGGCCACTT', 'TGFBR1 mRNA', 'N'),
  ('AUUUCGCACACGUCCGUGUTT', 'TGFBR1 mRNA', 'Y'),
  ('UGCUUGAGUAGUGCUAGUUTT', 'TGFBR1 mRNA', 'Y'),
  ('UGUAGUGAAUUCCAAAGAGTT', 'TGFBR1 mRNA', 'Y');

Decide: remaining TGFBR1 mRNA of ACCUUACCUUGUCGACGAATT strictly below 1?
Y

Consider next the sequence UCAAGUGCAGUAGUAGAUGTT in the same way.
N

Again, but for UUUCCUGGUUGGUGAGCAGTT
N

// repeat for GGUGCCAGGCAUUUUAUCCTT and report
N

What do you get for AGACUACUGUGGCCAGUAATT ?
N

Also, UUCAAGGUCAGUCUCUGGGTT please.
N

Now consider AAUCAGGGCGGAGUAGGUGTT and answer again.
N

----------
Parameter remaining TGFBR2 mRNA: see the listing below.
tested on: TGFBR2 mRNA; experiment: remaining TGFBR2 mRNA relative to control siRNA (off-target knock-down) (fraction of control); quantification method: branched DNA (R1), qPCR (R2); higher = less knock-down
I'd appreciate a reply containing only the number, no unit.

Use these answered entries as a reference point.
INSERT INTO results (residue_sequence, numeric_readout) VALUES
  ('UCUCGCUGACGAAGCAGUATT', 0.75),
  ('AUGUGUACAGCCCUCUUCCTT', 0.65),
  ('AACUGGUUCAGGUACUUCCTT', 0.71),
  ('AGACGGCAAACGACUGUCCTT', 0.75);

Turning now to a further sequence:
Looking for the measured remaining TGFBR2 mRNA of AUCCUGCAGAAUCACGUCCTT , can you help?
0.7

----------
test system: TGFBR1 mRNA; test: remaining TGFBR1 mRNA relative to control siRNA (off-target knock-down) (fraction of control); quantification method: branched DNA (R1), qPCR (R2); higher = less knock-down
# strict inequality: remaining TGFBR1 mRNA < 1 yields fulfilled, everything else yields not fulfilled

INSERT INTO results (residue_sequence, label_value) VALUES
  ('CUCUGGGGAUUUGGAGGAUTT', 'not fulfilled'),
  ('UGCACCUGACUUUUCUCUGTT', 'not fulfilled'),
  ('UGUCUCCUCUCUUGUCCGUTT', 'fulfilled'),
  ('AGACGGCAAACGACUGUCCTT', 'not fulfilled'),
  ('AACUGGUUCAGGUACUUCCTT', 'fulfilled'),
  ('UCUCGCUGACGAAGCAGUATT', 'not fulfilled'),
  ('AUGUGUACAGCCCUCUUCCTT', 'not fulfilled'),
  ('AGCUCAAACAGUAUCUGGUTT', 'not fulfilled'),
  ('AACACCAUCUACUUGAUGGTT', 'not fulfilled'),
  ('AUCCUGCAGAAUCACGUCCTT', 'fulfilled');

# input for lookup
Dear reviewer, please state whether AGGAUCAGCAGCCCGUAGCTT has remaining TGFBR1 mRNA strictly beneath 1.
not fulfilled

----------
system: TGFBR2 mRNA; assay: remaining TGFBR2 mRNA relative to control siRNA (off-target knock-down) (fraction of control); quantification method: branched DNA; higher = less knock-down
Items are presented alongside their recorded remaining TGFBR2 mRNA.

INSERT INTO results (residue_sequence, result) VALUES
  ('AAUUGGCUCCACAGUCUUUTT', 0.44),
  ('AAAAACCCUUUCCUGGGGCTT', 0.21),
  ('AUCUAAACUCCUCUGGAGCTT', 0.38),
  ('AUCCUUGUCUGGAACAGUGTT', 0.25),
  ('CUUGACUUCUGGGGUCCACTT', 0.94),
  ('AACAUAGCCUCAUACAAGGTT', 0.25),
  ('AUCCUUGGCCAGUUUGGUCTT', 0.15),
  ('AUCUACACACACGCAAGAATT', 0.73),
  ('UUGUGCUGCAUACGGAGCCTT', 0.45),
  ('UUUCAGCAAUACAAGCCCGTT', 0.68);

Query (sequence): AGAUCACCGCGUAGACAACTT ; field requested: remaining TGFBR2 mRNA
0.65

Try the sequence AGCGUCCUGAAGACUGGAUTT
1.03

Try the sequence AUAUAUACUGCUAUGGUCATT
0.39

----------
tested on: TGFBR2 mRNA; assay: remaining TGFBR2 mRNA relative to control siRNA (off-target knock-down) (fraction of control); quantification method: branched DNA; higher = less knock-down
Metric: remaining TGFBR2 mRNA
// no unit, no text: just the number

Sample records with remaining TGFBR2 mRNA:
INSERT INTO measurements (residue_sequence, numeric_readout) VALUES
  ('AUAUCCCGGGAGUUGUCGUTT', 0.37),
  ('UUUCAUUCCAUUGGAAUUUTT', 0.59),
  ('AAAAGGCCUUCAAGCUGUUTT', 0.41),
  ('ACUGGAUCAGUCGCAGAAUTT', 0.38);

Consider the sequence UCCAUGGAUGCAGAAGUCCTT and give its measured remaining TGFBR2 mRNA.
0.56

Then this sequence: AUGGUGAGAAGACACAGGCTT
0.54

Now the same for UGCGUUUACGGUUCACACGTT
0.6

Same lookup for UAUGCUCCUCUUCCUGUUCTT , please.
0.57

Origin of values: the supplement of paper PMC3068080
